Reference for the values: PubChem BioAssay

assay.target: Receptor tyrosine-protein kinase erbB-2 (Homo sapiens) (UniProt P04626)
Sequence (P04626 whole entry, looked up): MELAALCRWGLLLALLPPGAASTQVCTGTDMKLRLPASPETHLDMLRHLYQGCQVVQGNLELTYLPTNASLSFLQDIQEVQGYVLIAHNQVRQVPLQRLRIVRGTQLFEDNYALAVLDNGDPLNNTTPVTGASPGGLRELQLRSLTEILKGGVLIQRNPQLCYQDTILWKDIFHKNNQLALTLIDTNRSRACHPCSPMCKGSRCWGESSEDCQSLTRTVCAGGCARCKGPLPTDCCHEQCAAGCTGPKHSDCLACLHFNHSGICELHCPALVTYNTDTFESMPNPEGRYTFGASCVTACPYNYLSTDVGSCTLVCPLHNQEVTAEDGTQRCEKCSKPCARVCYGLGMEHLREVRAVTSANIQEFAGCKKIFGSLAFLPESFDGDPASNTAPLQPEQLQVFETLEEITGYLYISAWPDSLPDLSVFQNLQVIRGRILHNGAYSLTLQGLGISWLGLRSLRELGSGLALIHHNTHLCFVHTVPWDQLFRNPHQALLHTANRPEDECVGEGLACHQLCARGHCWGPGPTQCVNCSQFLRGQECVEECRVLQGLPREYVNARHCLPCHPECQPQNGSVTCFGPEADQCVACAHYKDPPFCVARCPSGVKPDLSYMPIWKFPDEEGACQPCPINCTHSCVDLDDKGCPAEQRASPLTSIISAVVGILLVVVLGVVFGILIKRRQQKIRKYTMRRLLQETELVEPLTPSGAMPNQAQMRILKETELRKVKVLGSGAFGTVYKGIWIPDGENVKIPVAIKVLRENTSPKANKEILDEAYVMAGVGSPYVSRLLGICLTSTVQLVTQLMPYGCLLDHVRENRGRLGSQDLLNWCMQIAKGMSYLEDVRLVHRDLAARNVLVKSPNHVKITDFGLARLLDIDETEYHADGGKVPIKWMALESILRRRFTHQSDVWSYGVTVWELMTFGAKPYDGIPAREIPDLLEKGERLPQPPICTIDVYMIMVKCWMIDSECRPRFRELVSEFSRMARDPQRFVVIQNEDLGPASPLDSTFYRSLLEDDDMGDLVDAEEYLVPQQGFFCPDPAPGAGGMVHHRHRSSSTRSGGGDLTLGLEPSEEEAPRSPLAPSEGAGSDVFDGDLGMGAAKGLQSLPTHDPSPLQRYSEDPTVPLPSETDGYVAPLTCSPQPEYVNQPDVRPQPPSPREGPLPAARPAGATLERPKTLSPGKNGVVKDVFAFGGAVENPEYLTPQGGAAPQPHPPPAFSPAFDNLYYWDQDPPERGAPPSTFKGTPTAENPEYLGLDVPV
test.method.notes: reducers of endogenous Her2 protein level, primary screen, SKBR3 breast tumor cells, AlphaScreen, ATP viability (AID 461);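 further: lower value means less Her2 protein in the cells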
test.parameters: 18-24 h, at 10 µM, hits give low values
measurement.type: Her2 level (%)
Your answer should be a plain number; it is taken to be in %.

# example entries with known answers
Would you kindly share the measured Her2 level for `Cc1ccc2occ(CN3CCN(c4ccccc4)CC3)c(=O)c2c1` ?
104

Entry `Cn1cccc1-c1nc2ccc(NC(=O)c3ccco3)cc2[nH]1` has what Her2 level?
93

For `O=C(NCc1ccc(Cl)cc1)c1ccc(COCC(F)(F)F)o1` , what is its reported Her2 level?
91

Continuing:
Which measured Her2 level value corresponds to `CC(C)=CCSc1nnc(CCNC(=O)OC(C)(C)C)o1` ?
85.5

Quick one: Her2 level for `C=CCn1c(SCC(=O)Nc2cccc(OC)c2)nnc1-c1cccnc1` ?
95

Using the record for COc1ccc(Cn2nnnc2C(c2cccnc2)N2CCN(c3ccc(O)cc3)CC2)cc1 (stereo unspecified) , report its Her2 level.
89.5
